Assay: Therapeutic index, ratio of IC50 for human TZM-b1 cells to EC50 for HIV1 RTMDR1
Type: cell-based
Conditions: read-out: TI
quantity-kind: selectivity ratio

Entry `CCc1oc2c3c(ccc2c(=O)c1C#N)OC(C)(C)[C@H](OC(=O)[C@@]12CC[C@@](C)(C(=O)O1)C2(C)C)[C@@H]3OC(=O)[C@@]12CC[C@@](C)(C(=O)O1)C2(C)C` has what selectivity ratio?
> 37

Entry `CCc1oc2c3c(ccc2c(=O)c1NC)OC(C)(C)[C@H](OC(=O)[C@@]12CC[C@@](C)(C(=O)O1)C2(C)C)[C@@H]3OC(=O)[C@@]12CC[C@@](C)(C(=O)O1)C2(C)C` has what selectivity ratio?
29

Entry `CC1(C)Oc2ccc3c(=O)cc(CN4CCOCC4)oc3c2[C@@H](OC(=O)[C@@]23CC[C@@](C)(C(=O)O2)C3(C)C)[C@H]1OC(=O)[C@@]12CC[C@@](C)(C(=O)O1)C2(C)C` has what selectivity ratio?
> 6.3

Entry `Cc1c(C#N)oc2c3c(ccc2c1=O)OC(C)(C)[C@H](OC(=O)[C@@]12CC[C@@](C)(C(=O)O1)C2(C)C)[C@@H]3OC(=O)[C@@]12CC[C@@](C)(C(=O)O1)C2(C)C` has what selectivity ratio?
21

Entry `Cc1oc2c3c(ccc2c(=O)c1Br)OC(C)(C)[C@H](OC(=O)[C@@]12CC[C@@](C)(C(=O)O1)C2(C)C)[C@@H]3OC(=O)[C@@]12CC[C@@](C)(C(=O)O1)C2(C)C` has what selectivity ratio?
14

###

Tested on: Human immunodeficiency virus 1
Experiment: Antiviral activity against HIV1 RTMDR1 in human TZM-b1 cells after 48 hrs by luciferase reporter gene assay
Format: functional, organism-based
Conditions: Human immunodeficiency virus 1, RTMDR1, TZM-b1, 48 h
pEC50: −log10 of the molar value.
Threshold check on pEC50: at or above 6 gives TRUE, strictly below gives FALSE.

Exam item: decide whether the reported pEC50 for `CCc1oc2c3c(ccc2c(=O)c1N)OC(C)(C)[C@H](OC(=O)[C@@]12CC[C@@](C)(C(=O)O1)C2(C)C)[C@@H]3OC(=O)[C@@]12CC[C@@](C)(C(=O)O1)C2(C)C` is at least 6.
TRUE

Exam item: decide whether the reported pEC50 for `Cc1oc2c3c(c(Br)c(C)c2c(=O)c1Br)OC(C)(C)[C@H](OC(=O)[C@@]12CC[C@@](C)(C(=O)O1)C2(C)C)[C@@H]3OC(=O)[C@@]12CC[C@@](C)(C(=O)O1)C2(C)C` is at least 6.
FALSE

Exam item: decide whether the reported pEC50 for `CC1(C)Oc2ccc3c(=O)cc(CBr)oc3c2[C@@H](OC(=O)[C@@]23CC[C@@](C)(C(=O)O2)C3(C)C)[C@H]1OC(=O)[C@@]12CC[C@@](C)(C(=O)O1)C2(C)C` is at least 6.
TRUE

Exam item: decide whether the reported pEC50 for `CC(Br)(Br)c1cc(=O)c2ccc3c(c2o1)[C@@H](OC(=O)[C@@]12CC[C@@](C)(C(=O)O1)C2(C)C)[C@@H](OC(=O)[C@@]12CC[C@@](C)(C(=O)O1)C2(C)C)C(C)(C)O3` is at least 6.
TRUE

Exam item: decide whether the reported pEC50 for `Cc1oc2c3c(ccc2c(=O)c1Br)OC(C)(C)[C@H](OC(=O)[C@@]12CC[C@@](C)(C(=O)O1)C2(C)C)[C@@H]3OC(=O)[C@@]12CC[C@@](C)(C(=O)O1)C2(C)C` is at least 6.
TRUE

Exam item: decide whether the reported pEC50 for `CCc1cc(=O)c2c(C)cc3c(c2o1)[C@@H](OC(=O)[C@@]12CC[C@@](C)(C(=O)O1)C2(C)C)[C@@H](OC(=O)[C@@]12CC[C@@](C)(C(=O)O1)C2(C)C)C(C)(C)O3` is at least 6.
TRUE

Exam item: decide whether the reported pEC50 for `Cc1oc2c3c(ccc2c(=O)c1N)OC(C)(C)[C@H](OC(=O)[C@@]12CC[C@@](C)(C(=O)O1)C2(C)C)[C@@H]3OC(=O)[C@@]12CC[C@@](C)(C(=O)O1)C2(C)C` is at least 6.
TRUE

Exam item: decide whether the reported pEC50 for `CCc1cc(=O)c2ccc3c(c2o1)[C@@H](OC(=O)[C@@]12CC[C@@](C)(C(=O)O1)C2(C)C)[C@@H](OC(=O)[C@@]12CC[C@@](C)(C(=O)O1)C2(C)C)C(C)(C)O3` is at least 6.
TRUE

Exam item: decide whether the reported pEC50 for `Cc1oc2c3c(ccc2c(=O)c1I)OC(C)(C)[C@H](OC(=O)[C@@]12CC[C@@](C)(C(=O)O1)C2(C)C)[C@@H]3OC(=O)[C@@]12CC[C@@](C)(C(=O)O1)C2(C)C` is at least 6.
FALSE

###

Answer each item with its documented selectivity ratio.
Test: Therapeutic index, ratio of CC50 for human H9 cells to EC50 for HIV1 3B
Type: cell-based
Conditions: read-out: TI
Give your answer as a number; write no unit.

Entry CC1(C)Oc2ccc3ccc(=O)oc3c2[C@@H](OC(=O)C23CCC(C)(C(=O)O2)C3(C)C)[C@H]1OC(=O)C12CCC(C)(C(=O)O1)C2(C)C (some centres not stated) has what selectivity ratio?
328

Entry `Cc1cc(=O)oc2c3c(ccc12)OC(C)(C)[C@H](OC(=O)[C@@]12CC[C@@](C)(C(=O)O1)C2(C)C)[C@@H]3OC(=O)[C@@]12CC[C@@](C)(C(=O)O1)C2(C)C` has what selectivity ratio?
6660

###

Assay: Cytotoxicity against human TZM-b1 cells
Format: cell-based
Answer each item with its documented IC50.
Reply numerically in µM, unit not repeated.

Entry `CC1(C)Oc2ccc3c(=O)cc(CBr)oc3c2[C@@H](OC(=O)[C@@]23CC[C@@](C)(C(=O)O2)C3(C)C)[C@H]1OC(=O)[C@@]12CC[C@@](C)(C(=O)O1)C2(C)C` has what IC50?
1.7

Entry CC(Br)c1cc(=O)c2ccc3c(c2o1)[C@@H](OC(=O)[C@@]12CC[C@@](C)(C(=O)O1)C2(C)C)[C@@H](OC(=O)[C@@]12CC[C@@](C)(C(=O)O1)C2(C)C)C(C)(C)O3 (stereo not given in full) has what IC50?
3.5

Entry `CC(Br)(Br)c1cc(=O)c2ccc3c(c2o1)[C@@H](OC(=O)[C@@]12CC[C@@](C)(C(=O)O1)C2(C)C)[C@@H](OC(=O)[C@@]12CC[C@@](C)(C(=O)O1)C2(C)C)C(C)(C)O3` has what IC50?
1.8

###

Experiment: Therapeutic index, ratio of IC50 for human TZM-b1 cells to EC50 for HIV1 NL4-3
Assay type: cell-based
Conditions: read-out: TI
Answer each item with its documented selectivity ratio.

Entry `Cc1oc2c3c(ccc2c(=O)c1I)OC(C)(C)[C@H](OC(=O)[C@@]12CC[C@@](C)(C(=O)O1)C2(C)C)[C@@H]3OC(=O)[C@@]12CC[C@@](C)(C(=O)O1)C2(C)C` has what selectivity ratio?
18

Entry `Cc1oc2c3c(ccc2c(=O)c1N)OC(C)(C)[C@H](OC(=O)[C@@]12CC[C@@](C)(C(=O)O1)C2(C)C)[C@@H]3OC(=O)[C@@]12CC[C@@](C)(C(=O)O1)C2(C)C` has what selectivity ratio?
130

Entry `CCc1oc2c3c(ccc2c(=O)c1NC)OC(C)(C)[C@H](OC(=O)[C@@]12CC[C@@](C)(C(=O)O1)C2(C)C)[C@@H]3OC(=O)[C@@]12CC[C@@](C)(C(=O)O1)C2(C)C` has what selectivity ratio?
73

Entry `Cc1c(C#N)oc2c3c(ccc2c1=O)OC(C)(C)[C@H](OC(=O)[C@@]12CC[C@@](C)(C(=O)O1)C2(C)C)[C@@H]3OC(=O)[C@@]12CC[C@@](C)(C(=O)O1)C2(C)C` has what selectivity ratio?
290

Entry `CCc1oc2c3c(ccc2c(=O)c1C#N)OC(C)(C)[C@H](OC(=O)[C@@]12CC[C@@](C)(C(=O)O1)C2(C)C)[C@@H]3OC(=O)[C@@]12CC[C@@](C)(C(=O)O1)C2(C)C` has what selectivity ratio?
> 54

###

Answer each item with its documented selectivity ratio.
Experiment: Therapeutic index, ratio of IC50 for human TZM-b1 cells to EC50 for HIV1 RTMDR1
Assay type: cell-based
Conditions: read-out: TI

Entry `CNc1c(C)oc2c3c(ccc2c1=O)OC(C)(C)[C@H](OC(=O)[C@@]12CC[C@@](C)(C(=O)O1)C2(C)C)[C@@H]3OC(=O)[C@@]12CC[C@@](C)(C(=O)O1)C2(C)C` has what selectivity ratio?
> 130

Entry `CC1(C)Oc2ccc3c(=O)cc(CNCc4ccncc4)oc3c2[C@@H](OC(=O)[C@@]23CC[C@@](C)(C(=O)O2)C3(C)C)[C@H]1OC(=O)[C@@]12CC[C@@](C)(C(=O)O1)C2(C)C` has what selectivity ratio?
> 1.3

Entry `CCc1oc2c3c(ccc2c(=O)c1Br)OC(C)(C)[C@H](OC(=O)[C@@]12CC[C@@](C)(C(=O)O1)C2(C)C)[C@@H]3OC(=O)[C@@]12CC[C@@](C)(C(=O)O1)C2(C)C` has what selectivity ratio?
> 28

Entry `Cc1oc2c3c(cc(C)c2c(=O)c1Br)OC(C)(C)[C@H](OC(=O)[C@@]12CC[C@@](C)(C(=O)O1)C2(C)C)[C@@H]3OC(=O)[C@@]12CC[C@@](C)(C(=O)O1)C2(C)C` has what selectivity ratio?
> 15
